- ASSAY SYSTEM: T1, Human TMPRSS2 recombinant protein, extracellular region (N-terminal His tag, C-terminal Strep-tag II) (human, UniProt O15393 106-492)
- T1 construct: also called Human TMPRSS2 recombinant proteins; extracellular region of human TMPRSS2
- T1 sequence (O15393 other isoform, or with tags, fused parts or gaps limits assumed): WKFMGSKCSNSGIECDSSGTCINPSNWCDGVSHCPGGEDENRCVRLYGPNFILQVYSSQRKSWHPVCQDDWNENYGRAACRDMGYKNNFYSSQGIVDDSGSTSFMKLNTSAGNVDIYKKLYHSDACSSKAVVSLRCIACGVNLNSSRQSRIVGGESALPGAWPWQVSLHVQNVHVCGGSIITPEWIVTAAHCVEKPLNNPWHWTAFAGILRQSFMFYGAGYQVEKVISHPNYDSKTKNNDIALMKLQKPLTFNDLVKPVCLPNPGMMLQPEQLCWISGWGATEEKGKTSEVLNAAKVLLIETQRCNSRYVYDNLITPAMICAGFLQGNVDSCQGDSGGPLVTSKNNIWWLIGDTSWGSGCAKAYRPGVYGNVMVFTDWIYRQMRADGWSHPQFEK
- METHOD: SPR (BIAcore), captured mAb, soluble human TMPRSS2 extracellular region
MEASURED ATTRIBUTE: Kd

Challenge: Recorded Kd for 2020_12 antibody (antibody, V domains shown) VH: QVQLQQPGAELAKPGASVKLSCKASGYTFTSYWMHWVKQRPGQGLEWIGLIPPNSGSSNYNEKFKSKATLTVDKSSRTAYMQLSSLTSEDSAVYYCARWDYGSSYGYFDVWGTGTTVTVSS VL: DIVLTQSPASLAVSLGQRATISCRASESVSTSGYSYMHWYQQKPGQPPKLLIYLASNLESGVPVRFSGSGSGTDFTLNIHPVEEEDAATYYCQHSRELPPTFGAGTKLELK , please?
Response given: 2.69 nM
